Quick reference: IC50 of the listed items.
# TARGET: recombinant thioredoxin reductase 1 (TrxR1) (Homo sapiens)
# PROTOCOL DESCRIPTION: Inhibition of recombinant TrxR1 (DTNB assay)
# Format: biochemical
# ASSAY CONDITIONS: Biological Example 4; read-out: TrxR inhibition (IC50)
Counter-ions that a name gives are not always drawn.
Returns: string containing the number followed by the unit.

Which IC50 value belongs to O=[N+]([O-])c1ccc(Cl)nc1S(=O)(=O)c1ccccc1 ?
0.056 µM

Report IC50 for Cc1ccc(S(=O)(=O)c2nc(N(C)C)ccc2[N+](=O)[O-])cc1 please.
0.438 µM

Request the reported IC50 associated with COc1ccc([N+](=O)[O-])c(S(=O)(=O)c2ccc(Cl)cc2)n1 [Example 1, Hydrochloride]
0.021 µM

Look at this molecule and give its reported IC50. COc1ccc([N+](=O)[O-])c(S(=O)(=O)c2ccccc2)n1 [Example 4, Trifluoroacetate]
0.024 µM

====

# TARGET: recombinant thioredoxin reductase 1 (TrxR1) (Homo sapiens)
# Sequence (Q16881 151-649 limits assumed): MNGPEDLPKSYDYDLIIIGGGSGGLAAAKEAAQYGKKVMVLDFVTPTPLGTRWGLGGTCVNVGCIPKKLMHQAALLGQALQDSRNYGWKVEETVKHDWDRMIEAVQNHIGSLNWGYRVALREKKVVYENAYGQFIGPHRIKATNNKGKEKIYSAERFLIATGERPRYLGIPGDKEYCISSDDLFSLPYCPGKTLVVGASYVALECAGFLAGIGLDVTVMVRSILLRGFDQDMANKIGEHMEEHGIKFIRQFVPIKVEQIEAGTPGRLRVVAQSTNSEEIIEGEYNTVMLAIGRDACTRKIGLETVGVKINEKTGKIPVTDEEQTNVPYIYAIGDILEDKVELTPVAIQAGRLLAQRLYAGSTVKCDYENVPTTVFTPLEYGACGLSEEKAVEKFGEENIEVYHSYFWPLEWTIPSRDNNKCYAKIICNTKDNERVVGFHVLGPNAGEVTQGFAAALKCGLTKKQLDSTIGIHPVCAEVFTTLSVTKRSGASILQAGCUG
# PROTOCOL DESCRIPTION: Inhibition of recombinant TrxR1 (DTNB assay)
# Type: biochemical
# ASSAY CONDITIONS: Biological Example 4; read-out: TrxR inhibition (IC50)
Where a name gives a salt, the structure may show the parent alone.
Hi! Could you tag entries with IC50 below 200 nM as met, and those at or above as not met? Much appreciated.

Identify whether the compound COc1ccc(S(=O)(=O)c2nc(N(C)C)ccc2[N+](=O)[O-])cc1 [Example 12] records IC50 below 200 nM.
not met

Does the reported IC50 of the following compound sit strictly below 200 nM? COc1ccc(S(=O)(=O)c2nc(Cl)ccc2[N+](=O)[O-])cc1 [Example 9]
met

Does the reported IC50 of O=[N+]([O-])c1cccnc1S(=O)(=O)c1ccccc1 [Example 2, Trifluoroacetate] stay below 200 nM?
not met

Answer whether the compound CN(C)c1ccc([N+](=O)[O-])c(S(=O)(=O)c2ccccc2)n1 [Example 14] has IC50 strictly less than 200 nM
not met

Given COc1ccc([N+](=O)[O-])c(S(=O)(=O)c2ccc(C)cc2)n1 [Example 6, 6-Methoxy-3-nitro-2-tosylpyridine] , is recorded IC50 strictly lower than 200 nM?
met

Continuing:
Given the entry CN(C)c1ccc([N+](=O)[O-])c(S(=O)(=O)c2ccc(Cl)cc2)n1 [Example 13] , would its reported IC50 be below 200 nM?
met

Problem: For the compound COc1ccc(S(=O)(=O)c2nc(OC)ccc2[N+](=O)[O-])cc1 [Example 7] , is IC50 under 200 nM?
not met

Hi there! Is IC50 for O=[N+]([O-])c1cccnc1S(=O)(=O)c1ccc(Cl)cc1 [Example 5, Trifluoroacetate] below 200 nM, do you know?
met
